- System Name: human IRAK4 (Homo sapiens (Human), UniProt Q9NWZ3)
- Sequence (Q9NWZ3 whole entry): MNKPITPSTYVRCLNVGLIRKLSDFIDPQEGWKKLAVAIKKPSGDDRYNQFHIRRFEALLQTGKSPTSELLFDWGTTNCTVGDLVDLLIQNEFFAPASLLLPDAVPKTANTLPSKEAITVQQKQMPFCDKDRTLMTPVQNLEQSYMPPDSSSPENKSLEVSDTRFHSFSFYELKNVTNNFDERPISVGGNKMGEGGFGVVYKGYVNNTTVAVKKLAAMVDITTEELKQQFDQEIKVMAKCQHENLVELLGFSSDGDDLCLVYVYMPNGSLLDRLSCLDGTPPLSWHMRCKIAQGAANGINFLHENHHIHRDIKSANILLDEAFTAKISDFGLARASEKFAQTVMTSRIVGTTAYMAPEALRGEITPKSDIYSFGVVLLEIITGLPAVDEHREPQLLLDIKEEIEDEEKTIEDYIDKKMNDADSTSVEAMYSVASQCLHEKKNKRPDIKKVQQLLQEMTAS
- Run Description: IRAK4 kinase inhibition, Transcreener fluorescence polarization ADP assay
- Measurement Parameters: recombinant full-length His6-IRAK4; 125 uM ATP; 90 min; Ki computed using ATP Km 642 uM
pKi: −log10 of the molar value.
Assay Endpoint: pKi

Here are 5 compounds together with their reported answers.
{"Compound": "O=C(Nc1cc2c(cc1N1CCOCC1)C(=O)N(C1CCOC1)C2)c1cnn2cccnc12 (single isomer, unassigned) [Example 275]", "pKi": 7.47}
{"Compound": "CNc1cnc2c(C(=O)Nc3cc4c(cc3N3CCN(CC(F)F)CC3)O[C@@](C)(CO)C4)cnn2c1 [Example 382]", "pKi": 8.40}
{"Compound": "CN1CCc2cc(NC(=O)c3cnn4cccnc34)c(N3CCOCC3)cc2C1=O [Example 401]", "pKi": 7.01}
{"Compound": "CC1(C)Cc2cc(NC(=O)c3cnn4cccnc34)c(-n3cnc(CO)c3)cc2O1 [Example 102]", "pKi": 6.72}
{"Compound": "CC1(C)Cc2cc(NC(=O)c3cnn4cccnc34)c(OC[C@@H]3CNC(=O)C3)cc2O1 [Example 308]", "pKi": 8.05}

A: O=C(Nc1cc2c(cc1N1CCOCC1)OC1(CCN(CCF)CC1)C2)c1cnn2cccnc12 [Example 501]
B: CC1(C)Cc2cc(NC(=O)c3cnn4cccnc34)c(N3CCCC(F)(F)C3)cc2O1 [Example 196]
C: CC(C)(O)CN1Cc2cc(NC(=O)c3cnn4cccnc34)c(N3CCOCC3)cc2C1=O [Example 176]
Arrange these 3 compounds in increasing order of pKi. # the answer lists labels in the order requested C, B, A

====

- System Name: human IRAK4 (Homo sapiens (Human), UniProt Q9NWZ3)
- Run Description: IRAK4 kinase inhibition, Transcreener fluorescence polarization ADP assay
- Type: biochemical
- Measurement Parameters: recombinant full-length His6-IRAK4; 125 uM ATP; 90 min; Ki computed using ATP Km 642 uM
Assay Endpoint: Ki (nM)

{"Compound": "CN1CC[C@H](N2Cc3cc(NC(=O)c4cnn5cccnc45)c(N4CCOCC4)cc3C2=O)C1=O", "Ki [nM]": 14}
{"Compound": "CC(C)(O)[C@H](F)CN1Cc2cc(NC(=O)c3cnn4cc(Cl)cnc34)c(N3CCOCC3)cc2C1=O", "Ki [nM]": 1.7}
{"Compound": "O=C(Nc1cc2c(cc1N1CCOCC1)C(=O)N(CC(F)(F)F)C2)c1cnn2cccnc12", "Ki [nM]": 29}
{"Compound": "O=C(Nc1cc2c(cc1N1CCOCC1)C(=O)N(CC1CCCCO1)C2)c1cnn2cccnc12 (centres unmarked) [Example 257]", "Ki [nM]": 6}
{"Compound": "O=C(Nc1cc2c(cc1N1CCOCC1)C(=O)N([C@@H]1CCC[C@H]1CO)C2)c1cnn2cccnc12", "Ki [nM]": 5.9}
{"Compound": "CCOP(=O)(OCC)OCC1CCN(c2cc3c(cc2NC(=O)c2cnn4cccnc24)CC(C)(C)O3)CC1", "Ki [nM]": 130}

1: CC1(C)Cc2cc(NC(=O)c3cnn4cccnc34)c(N3CCN(CCO)CC3)cc2O1
2: CC(C)(O)CN1CCN(c2cc3c(cc2NC(=O)c2cnn4cccnc24)CC(C)(CO)O3)CC1 (centres unmarked)
Input pair: 1 , 2 . Output: entry with lower Ki. Return value: the label identifying the chosen record. 1
